procedureSummary: ATG_EGR_CIS: Attagene CIS-FACTORIAL HepG2 Assay for human Early Growth Response 1 (EGR1) (AID 2282938)
testSettings: HepG2 Attagene CIS-FACTORIAL EGR reporter mRNA; actives raise or lower the signal
Activity calls are given as the source filed them. Rule for the calls: active = hit-call score of the fitted dose curve at least 0.9, where 1 is the maximum; inactive = score below 0.9.
Bench note: report the call from active, inactive

> print(dat)
                                   molecule  qualitativelabel
1                        Clc1nc(Cl)nc(Cl)n1          inactive
2  CC(=[OH+])/C=C(/C)[O-].CC(=[OH+])/C=C(/C)[O-].CC(=[OH+])/C=C(/C)[O-].[Fe]          inactive

Prompt: Which outcome was entered for the molecule `ClCC(Cl)CCl` in this test?
Completion: inactive

Prompt: Field: outcome | Entry: CC(C#N)CCC#N (stereo not given)
Completion: inactive

Prompt: Assay outcome for `CCN(CC)C(=O)Cl` : what was it?
Completion: inactive

Prompt: For this molecule, state the assay outcome: `C[C@@H](Oc1ccc(Cl)cc1Cl)C(=O)O`
Completion: inactive

Prompt: What is the recorded call for this molecule in the test? `O=C(O)C(F)(F)C(F)(F)C(F)(F)C(F)(F)C(F)(F)C(F)(F)F`
Completion: inactive

Prompt: Recorded test outcome, item `O=C(O)Cc1ccccc1`
Completion: inactive

Prompt: # lookup: test call for `NC(=S)Nc1ccccc1`
Completion: inactive

Prompt: Each molecule tested received a call. Report the one for CC(=O)OC(c1ccccc1)C(Cl)(Cl)Cl (stereo not given) .
Completion: inactive

Prompt: Lab log entry: `Nc1ccc(Cl)cc1C(=O)c1ccccc1` — outcome as called in the assay?
Completion: active

Prompt: Which outcome did this test record for the molecule CC12CC1(C)C(=O)N(c1cc(Cl)cc(Cl)c1)C2=O (stereo not given) ?
Completion: inactive

Prompt: Which result was noted for this molecule in the test: `OCc1ccco1`
Completion: inactive

Prompt: Please share the test call associated with CC(C)(c1ccc(OCC2CO2)cc1)c1ccc(OCC2CO2)cc1 (stereo not given) .
Completion: active

Prompt: Which result was noted for this molecule in the test: `COP(=S)(OC)Oc1c(Cl)cc(C)cc1Cl`
Completion: inactive

Prompt: What call does the record list for `CC(=O)C=C(C)C` ?
Completion: inactive

Prompt: Given `COc1cccc(C=O)c1` , state the outcome it received in this test.
Completion: inactive

Prompt: Check the results log: what was the call for CCCCC(CC)CO[N+](=O)[O-] (stereo not given) ?
Completion: inactive

Prompt: Fill in: this test's call for `O=c1[nH]c(=O)[nH]c(=O)[nH]1` is ___
Completion: inactive

Prompt: Recorded call for `Oc1c(I)cc(I)cc1I` ?
Completion: active

Prompt: Hi team, can someone confirm the assay call for `O=C(Cc1ccccc1)c1ccccc1` ?
Completion: inactive
